Experiment: Experimental LogD (partition coefficient)
Details: not stated, Partition Coeff LogD
Positions of bridges follow the written chain, without caps; N, C: chain ends. Non-standard residues stand in square brackets, D forms with d. Residues, ends and D or L forms follow the SMILES beside them. R8 = C=CCCCCCC[C@@](C)(N)C(=O)O; Cba = N[C@@H](CC1CCC1)C(=O)O; S5 = C=CCCC[C@](C)(N)C(=O)O
Readings of logD for the listed compounds
reported.endpoint: logD

compound="CC(=O)N[C@@H](Cc1ccccc1)C(=O)N[C@]1(C)CCCCCCC=CCCC[C@@](C)(C(=O)N[C@@H](CO)C(N)=O)NC(=O)[C@H](CC2CCC2)NC(=O)[C@H](CC(C)C)NC(=O)[C@H](CCC(N)=O)NC(=O)[C@H](Cc2c[nH]c3ccccc23)NC(=O)[C@H](Cc2ccc(O)cc2)NC(=O)[C@H](CCC(=O)O)NC1=O [MP-203] (Ac-F[R8]EYWQL[Cba][S5]S-NH2; staple 2-9)" reported_endpoint=logD endpoint_value=2.61
compound=CC(=O)N[C@@H](CCCCN=[N+]=[N-])C(=O)NCCC(=O)N[C@@H](CC(C)C)C(=O)N[C@H](C(=O)N[C@@H](Cc1ccccc1)C(=O)N[C@]1(C)CCCCCCC=CCCC[C@@](C)(C(=O)N[C@@H](CO)C(=O)N[C@@H](C)C(=O)N[C@@H](C)C(N)=O)NC(=O)[C@H](CC2CCC2)NC(=O)C(C)(C)NC(=O)[C@H](C)NC(=O)[C@H](Cc2c[nH]c3ccccc23)NC(=O)[C@H](Cc2ccc(O)cc2)NC(=O)[C@H](CCC(=O)O)NC1=O)[C@@H](C)O reported_endpoint=logD endpoint_value=3
compound="CC(=O)N[C@@H](CCCCN=[N+]=[N-])C(=O)NCCC(=O)N[C@@H](CC(C)C)C(=O)N[C@H](C(=O)N[C@@H](Cc1ccccc1)C(=O)N[C@]1(C)CCCCCCC=CCCC[C@@](C)(C(=O)N[C@@H](CO)C(=O)N[C@@H](C)C(=O)N[C@@H](C)C(N)=O)NC(=O)[C@H](CC2CCC2)NC(=O)[C@H](CCC(N)=O)NC(=O)[C@H](CCCCN)NC(=O)[C@H](Cc2c[nH]c3ccccc23)NC(=O)[C@H](Cc2ccc(O)cc2)NC(=O)[C@H](CCC(=O)O)NC1=O)[C@@H](C)O [MP-549, AZIDE-ATSP-7041 (A8K)]" reported_endpoint=logD endpoint_value=2.75

---

Readings of LDH: Cytotoxicity assay % Effect for the listed compounds
System: HCT116 cells
Test: Lactate dehydrogenase (LDH) release assay
Assay type: cell-based
Positions of bridges follow the written chain, without caps; N, C: chain ends. Non-standard residues stand in square brackets, D forms with d. Residues, ends and D or L forms follow the SMILES beside them. R8 = C=CCCCCCC[C@@](C)(N)C(=O)O; Cba = N[C@@H](CC1CCC1)C(=O)O; S5 = C=CCCC[C@](C)(N)C(=O)O
reported.endpoint: LDH: Cytotoxicity assay % Effect (%)

compound="CC(=O)N[C@@H](CCCCN)C(=O)N[C@@H](CCCCN)C(=O)N[C@H](C(=O)N[C@@H](CO)C(=O)N[C@@H](Cc1ccccc1)C(=O)N[C@]1(C)CCCCCCC=CCCC[C@@](C)(C(=O)N[C@@H](CCC(=O)O)C(N)=O)NC(=O)[C@H](CC2CCC2)NC(=O)[C@H](CC(C)C)NC(=O)[C@H](C)NC(=O)[C@H](Cc2c[nH]c3ccccc23)NC(=O)[C@H](Cc2ccc(O)cc2)NC(=O)[C@H](CCC(=O)O)NC1=O)[C@@H](C)O [MP-157] (Ac-KKTSF[R8]EYWAL[Cba][S5]E-NH2; staple 6-13)" endpoint_value=5.957
compound=CC(=O)N[C@H](C(=O)N[C@@H](CO)C(=O)N[C@@H](Cc1ccccc1)C(=O)N[C@]1(C)CCCCCCC=CCCC[C@@](C)(C(=O)N[C@@H](CCC(N)=O)C(=O)N[C@@H](CC(N)=O)C(=O)N[C@@H](Cc2ccccc2)C(N)=O)NC(=O)[C@H](CC(C)C)NC(=O)[C@H](CC(C)C)NC(=O)[C@H](C)NC(=O)[C@H](Cc2c[nH]c3ccccc23)NC(=O)[C@H](Cc2ccc(O)cc2)NC(=O)[C@H](CCC(=O)O)NC1=O)[C@@H](C)O endpoint_value=23.2
compound=CC(=O)N[C@H](C(=O)N[C@@H](CO)C(=O)N[C@@H](Cc1ccccc1)C(=O)NC(C)(C)C(=O)N[C@@H](CCC(=O)O)C(=O)N[C@@H](Cc1ccc(O)cc1)C(=O)N[C@@H](Cc1c[nH]c2ccccc12)C(=O)N[C@@H](C)C(=O)N[C@@H](CC(C)C)C(=O)N[C@@H](CC(C)C)C(=O)NC(C)(C)C(=O)N[C@@H](CCC(=O)O)C(N)=O)[C@@H](C)O endpoint_value=12.95
compound=CC(=O)N[C@@H](CCCCN)C(=O)N[C@@H](CCCCN)C(=O)N[C@H](C(=O)N[C@@H](CO)C(=O)N[C@@H](Cc1ccccc1)C(=O)N[C@]1(C)CCCCCCC=CCCC[C@@](C)(C(N)=O)NC(=O)[C@H](CC(C)C)NC(=O)[C@H](CC(C)C)NC(=O)[C@H](C)NC(=O)[C@H](Cc2c[nH]c3ccccc23)NC(=O)[C@H](Cc2ccc(O)cc2)NC(=O)[C@H](CCC(=O)O)NC1=O)[C@@H](C)O endpoint_value=72.79
compound=CC(=O)N[C@H](C(=O)N[C@@H](CO)C(=O)N[C@@H](Cc1ccccc1)C(=O)N[C@]1(C)CCCCCCC=CCCC[C@@](C)(C(=O)N[C@@H](CCC(=O)O)C(=O)N[C@@H](CC(N)=O)C(=O)N[C@@H](Cc2ccccc2)C(N)=O)NC(=O)[C@H](CC(C)C)NC(=O)[C@H](CC(C)C)NC(=O)[C@H](C)NC(=O)[C@H](Cc2c[nH]c3ccccc23)NC(=O)[C@H](Cc2ccc(O)cc2)NC(=O)[C@H](CCC(=O)O)NC1=O)[C@@H](C)O endpoint_value=37.3

---

Assay: physchem
Positions of bridges follow the written chain, without caps; N, C: chain ends. Non-standard residues stand in square brackets, D forms with d. Residues, ends and D or L forms follow the SMILES beside them. Lys(N3) = [N-]=[N+]=NCCCC[C@H](N)C(=O)O; R8 = C=CCCCCCC[C@@](C)(N)C(=O)O; Cba = N[C@@H](CC1CCC1)C(=O)O; S5 = C=CCCC[C@](C)(N)C(=O)O; βAla = NCCC(=O)O
reported.endpoint: EPSA (A^2)

compound="CC(=O)N[C@@H](CCCCN=[N+]=[N-])C(=O)NCCC(=O)N[C@@H](CO)C(=O)N[C@H](C(=O)N[C@@H](Cc1ccccc1)C(=O)N[C@]1(C)CCCCCCC=CCCC[C@@](C)(C(=O)N[C@@H](CO)C(=O)N[C@@H](CO)C(=O)N[C@@H](CO)C(N)=O)NC(=O)[C@H](CC2CCC2)NC(=O)[C@H](CCC(N)=O)NC(=O)[C@H](CO)NC(=O)[C@H](Cc2c[nH]c3ccccc23)NC(=O)[C@H](Cc2ccc(O)cc2)NC(=O)[C@H](CO)NC1=O)[C@@H](C)O [MP-667] (Ac-[Lys(N3)][βAla]STF[R8]SYWSQ[Cba][S5]SSS-NH2; staple 6-13)" units_symbol=A^2 endpoint_value=208
compound="CC(=O)N[C@@H](CCCCN=[N+]=[N-])C(=O)NCCC(=O)N[C@@H](CC(C)C)C(=O)N[C@H](C(=O)N[C@@H](Cc1ccccc1)C(=O)N[C@]1(C)CCCCCCC=CCCC[C@@](C)(C(=O)NCC(=O)N[C@@H](C)C(=O)N[C@@H](C)C(N)=O)NC(=O)[C@H](CC2CCC2)NC(=O)[C@H](CCC(N)=O)NC(=O)[C@H](C)NC(=O)[C@H](Cc2c[nH]c3ccccc23)NC(=O)[C@H](Cc2ccc(O)cc2)NC(=O)[C@H](CCC(=O)O)NC1=O)[C@@H](C)O [MP-798] (Ac-[Lys(N3)][βAla]LTF[R8]EYWAQ[Cba][S5]GAA-NH2; staple 6-13)" units_symbol=A^2 endpoint_value=212
compound="CC(=O)N[C@@H](CCCCN=[N+]=[N-])C(=O)NCCC(=O)N[C@@H](CC(C)C)C(=O)N[C@H](C(=O)N[C@@H](Cc1ccccc1)C(=O)N[C@]1(C)CCCCCCC=CCCC[C@@](C)(C(=O)N2CCC[C@H]2C(=O)N[C@@H](C)C(=O)N[C@@H](C)C(N)=O)NC(=O)[C@H](CC2CCC2)NC(=O)[C@H](CCC(N)=O)NC(=O)[C@H](C)NC(=O)[C@H](Cc2c[nH]c3ccccc23)NC(=O)[C@H](Cc2ccc(O)cc2)NC(=O)[C@H](CCC(=O)O)NC1=O)[C@@H](C)O [MP-184] (Ac-[Lys(N3)][βAla]LTF[R8]EYWAQ[Cba][S5]PAA-NH2; staple 6-13)" units_symbol=A^2 endpoint_value=201
compound=CC(=O)N[C@H](CC(C)C)C(=O)N[C@H](C(=O)N[C@@H](Cc1ccccc1)C(=O)N[C@]1(C)CCCCCCC=CCCC[C@@](C)(C(=O)N[C@@H](CO)C(=O)N[C@H](C)C(=O)N[C@@H](C)C(N)=O)NC(=O)[C@H](CC2CCC2)NC(=O)[C@H](CC(C)C)NC(=O)[C@H](CCC(N)=O)NC(=O)[C@H](Cc2c[nH]c3ccccc23)NC(=O)[C@H](Cc2ccc(O)cc2)NC(=O)[C@H](CCC(=O)O)NC1=O)[C@@H](C)O units_symbol=A^2 endpoint_value=191
